# ASSAY_PROTOCOL: ATG_EGR_CIS: Attagene CIS-FACTORIAL HepG2 Assay for human Early Growth Response 1 (EGR1) (AID 2282938)
# RECORDED_CONDITIONS: HepG2 Attagene CIS-FACTORIAL EGR reporter mRNA; actives raise or lower the signal
The source made the active and inactive calls. The calls were made as follows: active = hit-call score of the fitted dose curve at least 0.9, where 1 is the maximum; inactive = score below 0.9.
Give your call using only these classes: true (1) for active, false (0) for inactive

Consider the worked cases shown below.
{"COMPOUND": "COC(=O)C1CCC(C(=O)OC)CC1 (centres undefined)", "CLASS": "false (0)"}
{"COMPOUND": "O=C(O)C(F)(F)C(F)(F)OC(F)(F)F", "CLASS": "false (0)"}
{"COMPOUND": "C=C(C)C(=O)OCC(F)(F)C(F)(F)C(F)(F)C(F)(F)C(F)(F)C(F)(F)C(F)(F)F", "CLASS": "false (0)"}

Can you look up the reported call for O=C(O)C(F)(F)C(F)(F)C(F)(F)C(F)(F)C(F)(F)C(F)(F)C(F)(F)C(F)(F)C(F)(F)C(F)(F)C(F)(F)C(F)(F)C(F)(F)F for me?
false (0)

How did this test come out for C=CC/C=C/C/C=C/C/C=C/C ?
false (0)

Per the assay record, what outcome was assigned to CC(=O)Nc1ccc(N=Nc2cc(C)ccc2O)cc1 ?
false (0)

Just curious, what result did OCC(F)(F)C(F)(F)C(F)(F)C(F)(F)C(F)(F)C(F)(F)F get here?
true (1)

What call does the record list for CO[Si](OC)(c1ccccc1)c1ccccc1 ?
false (0)

Dear colleague, could you share the recorded outcome for NC(=O)C(F)(F)C(F)(F)C(F)(F)C(F)(F)F when you have a moment?
false (0)

* * *

# Read-out: Collagen I, COL1A1 (gene 1277)
# ASSAY_PROTOCOL: BSK_MyoF_CollagenI: BioMAP Diversity Plus: MyoF Assay for Collagen I Biomarker Activity (AID 2284238)
# RECORDED_CONDITIONS: primary human lung fibroblasts
Activity calls are given as the source filed them. The calls were made as follows: active = hit-call score of the fitted dose curve at least 0.9, where 1 is the maximum; inactive = score below 0.9.
Outcome (select one): active, inactive

Study these solved cases before continuing.
{"MOLECULE": "O=C(O)C(F)(F)C(F)(F)C(F)(F)C(F)(F)F", "CLASS": "inactive"}
{"MOLECULE": "O=C(O)C(F)(F)C(F)(F)C(F)(F)C(F)(F)C(F)(F)C(F)(F)C(F)(F)C(F)(F)Cl", "CLASS": "active"}
{"MOLECULE": "O=C(O)C=C(C(F)(F)F)C(F)(F)F", "CLASS": "inactive"}
{"MOLECULE": "O=S(=O)(OCCOC(F)(F)F)C(F)(F)F", "CLASS": "inactive"}
{"MOLECULE": "Cc1ccc(S(=O)(=O)OCC(F)(F)C(F)(F)C(F)(F)C(F)(F)C(F)(F)C(F)F)cc1", "CLASS": "inactive"}
{"MOLECULE": "C=C(C)C(=O)OCC(F)(F)C(F)(F)C(F)(F)F", "CLASS": "inactive"}
{"MOLECULE": "FC(F)(F)C(F)(F)C(F)(F)C(F)(F)C(F)(F)C(F)(F)C(F)(F)Br", "CLASS": "inactive"}
{"MOLECULE": "CCCCCCCOC(=O)c1ccccc1C(=O)OCCCCCCC", "CLASS": "inactive"}

Which outcome did this test record for the molecule CCO[Si](CCC(F)(F)C(F)(F)C(F)(F)C(F)(F)C(F)(F)C(F)(F)F)(OCC)OCC ?
inactive

Assay result, entry C=C(C)C(=O)OCCC(F)(F)C(F)(F)C(F)(F)C(F)(F)C(F)(C(F)(F)F)C(F)(F)F — outcome?
inactive

Per the assay record, what outcome was assigned to C=CC(F)(F)C(F)(F)C(F)(F)C(F)(F)C(F)(F)C(F)(F)C(F)(F)C(F)(F)C=C ?
inactive

Returns: the outcome recorded for O=S(=O)(O)C(F)(F)C(F)(F)C(F)(F)C(F)(F)C(F)(F)C(F)(F)C(F)(F)F in this assay.
inactive

Hi, sorry to bother you, what did the test record for CC(=O)Nc1ccc(N=Nc2cc(C)ccc2O)cc1 ?
inactive

Hi team, can someone confirm the assay call for C#C[C@]1(O)CC[C@H]2[C@@H]3CCc4cc(OC)ccc4[C@H]3CC[C@@]21C ?
inactive

Dear colleague, could you share the recorded outcome for CO[Si](OC)(c1ccccc1)c1ccccc1 when you have a moment?
active

What did the test return for FC1CC(F)(F)C(F)(F)C1(F)F (centres undefined) ?
inactive

Status in this test for O=C(O)C(F)(F)C(F)(F)OC(F)(F)F ?
inactive

Outcome? O=C(O)C(F)(F)C(F)(F)C(F)(F)C(F)(F)C(F)(F)C(F)(F)C(F)(F)C(F)(F)C(F)(F)C(F)(F)C(F)(F)C(F)(F)C(F)(F)F
inactive

Record lookup: outcome of this test for O=C(O)C(F)(F)C(F)(F)F ?
inactive

Give the logged outcome of this assay for the following molecule: FC(F)(F)C(F)(F)C(F)(F)C(F)(F)C(F)(F)C(F)(F)C(F)(F)C(F)(F)F
inactive

Give the logged outcome of this assay for the following molecule: OCCCC(F)(F)C(F)(F)C(F)(F)F
inactive

Query: recorded result category for FC(F)(Br)C(F)(F)C(F)(F)C(F)(F)C(F)(F)C(F)(F)Br in this test
inactive
